Reference for the values: patent US20190071416A1

- test.system: SMYD3 (Homo sapiens)
- procedure.summary: SMYD3 biochemical assay (MTase-Glo, MAP3K2 peptide substrate)
- particulars: Table 3; MTase assay, MAP3K2 peptide substrate; read-out: IC50
- Method: A SMYD3 enzymatic assay was developed using Promega's Methyltransferase-Glo™ reagents. In the assay, SMYD3 catalyzes the methylation of the MAP3K2 peptide substrate by transferring a methyl group from SAM to MAP3K2 peptide and further converts the SAM to SAH. The SMYD3 methyltransferase activity is measured based on the amount of SAH produced from the reaction through the use of coupling enzymes that convert the SAH to ATP. […]
experimental.readout: IC50

INSERT INTO results (compound, test_system, experimental_readout, val) VALUES
  ('CCCOC(=O)N1CCN(C(=O)c2ccc3c(Cl)cc(-c4cc(F)cc(F)c4)nc3c2)CC1 [B048]', 'SMYD3 (Homo sapiens)', 'IC50', '3000 nM'),
  ('CCCOC(=O)N1CCN(C(=O)c2ccc3c(Cl)c4c(nc3c2)CC(c2cnccn2)CC4)CC1 (centres unmarked) [A112]', 'SMYD3 (Homo sapiens)', 'IC50', '140 nM'),
  ('CCCOC(=O)N1CCN(C(=O)c2ccc3c(Cl)c4c(nc3c2)CC(c2ccnc(C)c2)CC4)C[C@@H]1C (some centres unmarked) [A123]', 'SMYD3 (Homo sapiens)', 'IC50', '140 nM'),
  ('CCCOC(=O)N1CCN(C(=O)c2ccc3c(Cl)c(C)c(C)nc3c2)CC1 [C003]', 'SMYD3 (Homo sapiens)', 'IC50', '3000 nM'),
  ('CCCOC(=O)N1CCN(C(=O)c2ccc3c(Cl)cc(-c4ccc5[nH]c(O)nc5c4)nc3c2)CC1 [B184]', 'SMYD3 (Homo sapiens)', 'IC50', '100 nM');

###

- test.system: SMYD3 (Homo sapiens, UniProt Q9H7B4)
- procedure.summary: SMYD3 biochemical assay (MTase-Glo, MAP3K2 peptide substrate)
- particulars: Table 3; MTase assay, MAP3K2 peptide substrate; read-out: IC50
In this section, each of the compounds is paired with its reported IC50.
experimental.readout: IC50 (nM)

INSERT INTO results (compound, val) VALUES
  ('CCCOC(=O)N1CCN(C(=O)c2ccc3c(Cl)cc(-c4ccc(C)cc4)nc3c2)C[C@H]1C [B052]', 770),
  ('CCCOC(=O)N1CCN(C(=O)c2ccc3c(Cl)c4c(nc3c2)CC(Cc2ccccn2)CC4)CC1 (stereo not drawn) [A103]', 390),
  ('CCCOC(=O)N1CCN(C(=O)c2ccc3c(Cl)c4c(nc3c2)CCC(CCN(C)C)C4)[C@@H](C)C1 (stereo partly drawn) [A082]', 510),
  ('C[C@@H]1CN(C(=O)c2ccc3c(Cl)cc(-c4ccc(C(C)(C)O)cc4)nc3c2)CCN1C(=O)OCCF [B267]', 150),
  ('CCCOC(=O)N1CCN(C(=O)c2ccc3c(Cl)cc(-c4ccnc(OC)c4)nc3c2)C[C@H]1C [B131]', 360),
  ('CCCOC(=O)N1CCN(C(=O)c2ccc3c(Cl)cc(-c4ccc5c(ccn5C)c4)nc3c2)CC1 [B140]', 350);

###

- test.system: UniProtKB Q9H7B4
- Sequence (Q9H7B4 1-428): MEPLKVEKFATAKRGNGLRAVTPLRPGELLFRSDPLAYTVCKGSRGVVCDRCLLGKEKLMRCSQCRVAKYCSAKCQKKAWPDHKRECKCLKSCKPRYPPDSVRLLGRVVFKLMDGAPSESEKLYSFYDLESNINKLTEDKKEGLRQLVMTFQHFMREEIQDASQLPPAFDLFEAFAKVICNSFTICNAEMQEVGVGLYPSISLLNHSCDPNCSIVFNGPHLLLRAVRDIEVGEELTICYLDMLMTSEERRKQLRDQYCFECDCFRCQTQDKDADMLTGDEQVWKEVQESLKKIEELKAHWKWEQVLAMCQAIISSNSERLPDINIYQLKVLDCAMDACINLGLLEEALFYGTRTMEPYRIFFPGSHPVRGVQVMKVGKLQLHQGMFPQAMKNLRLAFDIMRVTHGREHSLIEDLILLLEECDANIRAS
- procedure.summary: SMYD3 biochemical assay (MTase-Glo, MAP3K2 peptide substrate)
- particulars: Table 3; MTase assay, MAP3K2 peptide substrate; read-out: IC50
pIC50: −log10 of the molar value.
experimental.readout: pIC50

INSERT INTO results (molecule, val) VALUES
  ('CCCOC(=O)N1CCN(C(=O)c2ccc3c(Cl)cc(Nc4cccnc4)nc3c2)CC1', 5.51),
  ('CCCOC(=O)N1CCN(C(=O)c2ccc3c(Cl)cc(-c4cnn(C(C)C)c4)nc3c2)CC1', 5.96),
  ('CCCOC(=O)N1CCN(C(=O)c2ccc3c(Cl)cc(-c4ccc(OC)c(CO)c4)nc3c2)C[C@@H]1C', 6.82),
  ('CCCOC(=O)N1CCN(C(=O)c2ccc3c(Cl)c4c(nc3c2)CC(c2ncccc2C)CC4)C[C@@H]1C (stereo partly shown)', 6.42);

###

In this section, each of the molecules is paired with its reported pIC50.
- test.system: SMYD3 (Homo sapiens, UniProt Q9H7B4)
- procedure.summary: SMYD3 biochemical assay (MTase-Glo, MAP3K2 peptide substrate)
- particulars: Table 3; MTase assay, MAP3K2 peptide substrate; read-out: IC50
pIC50: −log10 of the molar value.
experimental.readout: pIC50

INSERT INTO assay_data (molecule, test_system, val) VALUES
  ('Cn1ccc(-c2cc(Cl)c3ccc(C(=O)N4CCN(C(=O)OCCF)CC4)cc3n2)c1', 'SMYD3 (Homo sapiens, UniProt Q9H7B4)', 6.85),
  ('CCCOC(=O)N1CCN(C(=O)c2ccc3c(Cl)c(C)c(-c4ccccc4)nc3c2)C[C@@H]1C', 'SMYD3 (Homo sapiens, UniProt Q9H7B4)', 6.80),
  ('CCCOC(=O)N1CCN(C(=O)c2ccc3c(Cl)cc(-c4ccc(CN=[N+]=[N-])cc4)nc3c2)CC1', 'SMYD3 (Homo sapiens, UniProt Q9H7B4)', 7.08),
  ('CCCOC(=O)N1CCN(C(=O)c2ccc3c(Cl)c4c(nc3c2)CC(c2ccc(F)cn2)CC4)C[C@H]1C (stereo partly drawn)', 'SMYD3 (Homo sapiens, UniProt Q9H7B4)', 6.82),
  ('CCCOC(=O)N1CCN(C(=O)c2ccc3c(Cl)c4c(nc3c2)CC(c2nccs2)CC4)CC1 (stereo not drawn)', 'SMYD3 (Homo sapiens, UniProt Q9H7B4)', 7.00),
  ('CCCOC(=O)N1CCN(C(=O)c2ccc3c(Cl)cc(-c4ccc(OC)c(CN)c4)nc3c2)C[C@H]1C', 'SMYD3 (Homo sapiens, UniProt Q9H7B4)', 7.12);

###

- test.system: SMYD3 (Homo sapiens, UniProt Q9H7B4)
- procedure.summary: SMYD3 biochemical assay (MTase-Glo, MAP3K2 peptide substrate)
- particulars: Table 3; MTase assay, MAP3K2 peptide substrate; read-out: IC50
pIC50: −log10 of the molar value.
In this section, each of the compounds is paired with its reported pIC50.
experimental.readout: pIC50

INSERT INTO results (compound, val) VALUES
  ('CCCOC(=O)N1CCN(C(=O)c2ccc3c(Cl)cc(-c4ccc(S(=O)(=O)N(C)C)cc4)nc3c2)C[C@H]1C', 6.21),
  ('CCCOC(=O)N1CCN(C(=O)c2ccc3c(Cl)c4c(nc3c2)CCCC4)CC1CC (stereo not drawn)', 6.20),
  ('CCCOC(=O)N1CCN(C(=O)c2ccc3c(Cl)c4c(nc3c2)CCC(CCN(C)C)C4)CC1 (stereo not drawn)', 6.68),
  ('CC(C)(C)n1cc(C(=O)N2CCN(C(=O)c3ccc4c(Cl)cc(-c5ccccc5)nc4c3)CC2)nn1', 6.35),
  ('CCCOC(=O)N1CCN(C(=O)c2ccc3c(Cl)cc(-c4cccc(S(N)(=O)=O)c4)nc3c2)CC1', 6.04),
  ('CCCOC(=O)N1CCN(C(=O)c2ccc3c(Cl)cc(-c4ccn(C(=O)OC)c4)nc3c2)CC1', 6.52),
  ('CCCOC(=O)N1CCN(C(=O)c2ccc3c(Cl)c4c(nc3c2)CCCC4)CC1COC(=O)CCC (stereo not drawn)', 5.39),
  ('C#Cc1ccc(C2CCc3c(nc4cc(C(=O)N5CCN(C(=O)OCCC)C[C@@H]5C)ccc4c3Cl)C2)nc1 (stereo partly drawn)', 6.59),
  ('CCCOC(=O)N1CCN(C(=O)c2ccc3c(Cl)c4c(nc3c2)CC(CCN(C)C)CC4)CC1 (stereo not drawn)', 7.05);

###

- test.system: UniProtKB Q9H7B4
- procedure.summary: SMYD3 biochemical assay (MTase-Glo, MAP3K2 peptide substrate)
- particulars: Table 3; MTase assay, MAP3K2 peptide substrate; read-out: IC50
pIC50: −log10 of the molar value.
Note to self: class labels come from recorded pIC50, ranges listed here: low-valued: < 6; mid-valued: ≥ 6 and < 7; high-valued: ≥ 7

INSERT INTO assay_data (molecule, test_system, label) VALUES
  ('CCCOC(=O)N1CCN(C(=O)c2ccc3c(Cl)c4c(nc3c2)CCCC4)CC1CC(=O)OC (stereo not shown)', 'UniProtKB Q9H7B4', 'low-valued'),
  ('CCCOC(=O)N1CCN(C(=O)c2ccc3c(Cl)cc(-c4cnn(C5CCCC5)c4)nc3c2)C[C@@H]1C', 'UniProtKB Q9H7B4', 'high-valued'),
  ('C#Cc1cccc(-c2cc(Cl)c3ccc(C(=O)N4CCN(C(=O)OCCC)CC4)cc3n2)c1', 'UniProtKB Q9H7B4', 'low-valued'),
  ('CCCCOC(=O)N1C2CCCC1CN(C(=O)c1ccc3c(Cl)c4c(nc3c1)CCCC4)C2', 'UniProtKB Q9H7B4', 'mid-valued'),
  ('CCCOC(=O)N1CCN(C(=O)c2ccc3c(Cl)cc(-c4cncc(C)c4)nc3c2)CC1', 'UniProtKB Q9H7B4', 'low-valued'),
  ('CCCOC(=O)N1CCN(C(=O)c2ccc3c(Cl)cc(Cc4ccccc4)nc3c2)CC1', 'UniProtKB Q9H7B4', 'low-valued'),
  ('CCCOC(=O)N1CCN(C(=O)c2ccc3c(Cl)c4c(nc3c2)CCCC4)C(CO)C1 (stereo not shown)', 'UniProtKB Q9H7B4', 'mid-valued'),
  ('CCCOC(=O)N1CCN(C(=O)c2ccc3c(Cl)c4c(nc3c2)CC(CCN)CC4)[C@H](C)C1 (stereo partly shown)', 'UniProtKB Q9H7B4', 'high-valued'),
  ('CCCOC(=O)N1CCN(C(=O)c2ccc3c(Cl)cc(-c4ccccc4C)nc3c2)CC1', 'UniProtKB Q9H7B4', 'low-valued'),
  ('CCCOC(=O)N1CCN(C(=O)c2ccc3c(Cl)cc(-c4ccn(C)c4)nc3c2)CC1', 'UniProtKB Q9H7B4', 'high-valued'),
  ('CCCOC(=O)N1CCN(C(=O)c2ccc3c(Cl)c4c(nc3c2)CC(c2ncccc2F)CC4)CC1 (stereo not shown)', 'UniProtKB Q9H7B4', 'mid-valued'),
  ('CCCOC(=O)N1CCN(C(=O)c2ccc3c(Cl)cc(-c4cccc(CNC)c4)nc3c2)C[C@H]1C', 'UniProtKB Q9H7B4', 'high-valued'),
  ('CCCOC(=O)N1CCN(C(=O)c2ccc3c(Cl)cc(-c4ccc(C(C)(C)CNC)cc4)nc3c2)CC1', 'UniProtKB Q9H7B4', 'high-valued'),
  ('CCCOC(=O)N1CCN(C(=O)c2ccc3c(Cl)c(C)c(-c4cccc(N)c4)nc3c2)CC1', 'UniProtKB Q9H7B4', 'high-valued'),
  ('CCCOC(=O)N1C2CCCC1CN(C(=O)c1ccc3c(Cl)c4c(nc3c1)CCCC4)C2', 'UniProtKB Q9H7B4', 'mid-valued'),
  ('CCCOC(=O)N1CCN(C(=O)c2ccc3c(Cl)cc(-c4ccc(N5CCN(C)CC5)cc4)nc3c2)C[C@H]1C', 'UniProtKB Q9H7B4', 'high-valued'),
  ('CCCOC(=O)N1CCN(C(=O)c2ccc3c(Cl)c4c(nc3c2)CCCC4)C(CC(=O)NC)C1 (stereo not shown)', 'UniProtKB Q9H7B4', 'low-valued');
